# testDetails: AUCall in rat at 15 mg/kg, ip administered as single dose and measured at 5 to 480 mins by LC-MS analysis
# Format: ADME, organism-based
# studyConditions: in vivo, time 5-480 min
observable: AUC
Provide a numeric answer, followed by its unit.

For reference, reported AUC for CC(C)c1cc(C(=O)N2Cc3ccc(CN4CCN(CCCCCCC(=O)Nc5cccc6c5C(=O)N(C5CCC(=O)NC5=O)C6=O)CC4)cc3C2)ccc1O (stereo unspecified) stands at 703 ng·h/mL

----------
# Test system: MX1
# testDetails: Antiproliferative activity against human MX1 cells assessed as inhibition of cell proliferation incubated for 72 hrs by MTT assay
# Format: functional, cell-based
# studyConditions: MX1, 72 h
observable: IC50

CC(C)c1cc(C(=O)N2Cc3ccc(CN4CCN(CCCCCC(=O)Nc5cccc6c5C(=O)N(C5CCC(=O)NC5=O)C6=O)CC4)cc3C2)c(O)cc1O (configuration not stated) :: 30 nM
CC(C)c1cc(C(=O)N2Cc3ccc(CN4CCN(C)CC4)cc3C2)c(O)cc1O [ONALESPIB] :: 500 nM
CC(C)c1cc(C(=O)N2Cc3ccc(CN4CCN(CCCCCCCC(=O)Nc5cccc6c5C(=O)N(C5CCC(=O)NC5=O)C6=O)CC4)cc3C2)c(O)cc1O (configuration not stated) :: 4940 nM
CC(C)c1cc(C(=O)N2Cc3ccc(CN4CCN(C(=O)CCCCNc5cccc6c5CN(C5CCC(=O)NC5=O)C6=O)CC4)cc3C2)c(O)cc1O (configuration not stated) :: 2020 nM
Nc1cccc2c1C(=O)N(C1CCC(=O)NC1=O)C2=O (configuration not stated) [POMALIDOMIDE] :: > 100000 nM

For reference, reported IC50 for CC(C)c1cc(C(=O)N2Cc3ccc(CN4CCN(CCCC(=O)Nc5cccc6c5C(=O)N(C5CCC(=O)NC5=O)C6=O)CC4)cc3C2)c(O)cc1O (configuration not stated) stands at 220 nM

For reference, reported IC50 for CC(C)c1cc(C(=O)N2Cc3ccc(CN4CCN(CCCCC(=O)Nc5cccc6c5C(=O)N(C5CCC(=O)NC5=O)C6=O)CC4)cc3C2)ccc1O (configuration not stated) stands at 76600 nM

For reference, reported IC50 for CC(C)c1cc(C(=O)N2Cc3ccc(CN4CCN(CCC(=O)Nc5cccc6c5C(=O)N(C5CCC(=O)NC5=O)C6=O)CC4)cc3C2)c(O)cc1O (configuration not stated) stands at 90 nM

For reference, reported IC50 for CC(C)c1cc(C(=O)N2Cc3ccc(CN4CCN(C(=O)CCCCCNc5cccc6c5CN(C5CCC(=O)NC5=O)C6=O)CC4)cc3C2)c(O)cc1O (configuration not stated) stands at 1930 nM

For reference, reported IC50 for CC(C)c1cc(C(=O)N2Cc3ccc(CN4CCN(CCCC(=O)Nc5cccc6c5C(=O)N(C5CCC(=O)NC5=O)C6=O)CC4)cc3C2)ccc1O (configuration not stated) stands at 40800 nM

For reference, reported IC50 for CC(C)c1cc(C(=O)N2Cc3ccc(CN4CCN(CCCCCC(=O)Nc5cccc6c5C(=O)N(C5CCC(=O)NC5=O)C6=O)CC4)cc3C2)ccc1O (configuration not stated) stands at 34600 nM

For reference, reported IC50 for CC(C)c1cc(C(=O)N2Cc3ccc(CN4CCN(CCCCCCC(=O)Nc5cccc6c5C(=O)N(C5CCC(=O)NC5=O)C6=O)CC4)cc3C2)c(O)cc1O (configuration not stated) stands at 310 nM
